// provenance: patent US20230203155A1

molecular target: T1, rat serum albumin (rat, UniProt P02770 25-608); test: SPR, albumin on chip, pH 5.5;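 note: albumins amine-coupled onto carboxyl SPR chips, with each analyte also run over a hen egg lysozyme surface as negative control, Kd derived from binding kinetics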
T1 construct: also called RSA
T1 sequence (P02770 25-608 limits assumed): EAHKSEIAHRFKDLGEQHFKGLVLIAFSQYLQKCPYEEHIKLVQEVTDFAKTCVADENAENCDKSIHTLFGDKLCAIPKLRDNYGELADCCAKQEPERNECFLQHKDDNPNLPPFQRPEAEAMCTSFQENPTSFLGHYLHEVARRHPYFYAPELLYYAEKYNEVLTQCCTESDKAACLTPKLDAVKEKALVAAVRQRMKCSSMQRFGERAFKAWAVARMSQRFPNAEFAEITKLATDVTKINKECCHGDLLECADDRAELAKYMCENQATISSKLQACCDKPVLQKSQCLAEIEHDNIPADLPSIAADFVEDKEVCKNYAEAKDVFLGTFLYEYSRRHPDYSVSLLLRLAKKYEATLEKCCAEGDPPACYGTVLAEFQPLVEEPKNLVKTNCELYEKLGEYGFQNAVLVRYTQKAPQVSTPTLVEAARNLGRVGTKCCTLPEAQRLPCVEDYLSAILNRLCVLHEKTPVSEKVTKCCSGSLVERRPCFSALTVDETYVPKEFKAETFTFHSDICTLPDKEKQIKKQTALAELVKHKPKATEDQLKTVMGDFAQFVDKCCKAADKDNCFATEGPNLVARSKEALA
As shown below, each of these binders has a reported Kd value.
Report as a plain number; the unit nM is understood.

Worked examples follow.
BA11-C terminal cysteine-maleimide-peg-fluorescein (VNAR, C-terminal cysteine conjugated to maleimide-peg-fluorescein, also called BA11-cys-mal-Fl) VNAR: TRVDQSPSSLSASVGDRVTITCVLTDTSYPLYSTYWYRKNPGSSNKEQISISGRYSESVNKGTKSFTLTISSLQPEDSATYYCRAMSTNIWTGDGAGTKVEIK | 7.24
BA11-oxime-fluorescein (VNAR, C-terminal oxime-linked benzaldehyde-peg-fluorescein) VNAR: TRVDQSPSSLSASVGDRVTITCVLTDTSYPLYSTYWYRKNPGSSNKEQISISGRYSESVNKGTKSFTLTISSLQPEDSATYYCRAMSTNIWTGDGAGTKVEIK | 5.93
BA11 C-terminal thiol derivative (VNAR, C-terminal thiol (intein cleavage with cysteamine), also called BA11-SH) VNAR: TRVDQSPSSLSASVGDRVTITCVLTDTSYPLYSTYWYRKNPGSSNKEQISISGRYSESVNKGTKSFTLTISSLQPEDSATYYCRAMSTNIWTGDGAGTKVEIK | 12.1
BA11 C-terminal cysteine derivative (VNAR, additional C-terminal cysteine (intein cleavage with cysteine), also called BA11-cys) VNAR: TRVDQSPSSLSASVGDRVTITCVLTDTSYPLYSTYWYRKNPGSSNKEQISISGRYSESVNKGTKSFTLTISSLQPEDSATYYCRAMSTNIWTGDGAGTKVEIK | 3.21

query: Kd for BA11 (humanised HSA-binding VNAR) (VNAR, VNAR) VNAR: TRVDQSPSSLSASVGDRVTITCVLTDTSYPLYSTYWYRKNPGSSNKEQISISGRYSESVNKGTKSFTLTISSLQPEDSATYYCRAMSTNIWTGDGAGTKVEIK ?
result: 4.39

query: Also need BA11-C term thiol-maleimide-peg-fluorescein (VNAR, C-terminal thiol conjugated to maleimide-peg-fluorescein, also called BA11-S-mal-Fl) VNAR: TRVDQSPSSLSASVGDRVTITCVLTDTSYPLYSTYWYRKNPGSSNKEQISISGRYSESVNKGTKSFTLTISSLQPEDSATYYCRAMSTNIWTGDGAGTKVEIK , thanks.
result: 7.92
